B1: ALDH8A1 (parent)
chain: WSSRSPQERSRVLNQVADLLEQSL

# Variants of: B1
# assay.remarks: protein stability index of a GFP-peptide fusion (GPS, HEK-293T) (PSI 1-6); higher = more stable;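 note: lentivirally expressed fusions sorted by FACS into six bins by GFP to DsRed ratio, PSI derived from sequencing read proportions per bin multiplied by bin number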
# test.conditions: c terminus: a fixed tail appended
quantity: protein stability index

## Task Which value of protein stability index has been reported for WSSRSPQERMRVLNQVADLLEQSL [S10M] in the records?
## Result 2.45

## Task So what does the record say about protein stability index for WSSRSPQERSRVLSQVADLLEQSL [N14S] ?
## Result 2.58

## Task Look at this variant and give its reported protein stability index. WSSRSPQERSRVLNQVADLLEWSL [Q22W]
## Result 1.95

## Task Recorded protein stability index of WSSRSPQERLRVLNQVADLLEQSL [S10L] , please.
## Result 2.25

## Task I am curious: what protein stability index value has been reported for WSSRSPQHRSRVLNQVADLLEQSL [E8H] ?
## Result 2.71

## Task What protein stability index value was documented for this variant, YSSRSPQERSRVLNQVADLLEQSL [W1Y] ?
## Result 2.68

## Task Endpoint output: protein stability index of WSSRSPQERSRALNQVADLLEQSL [V12A] . Value?
## Result 3.11

## Task Returns the measured protein stability index for the input variant. Input: WRSRSPQERSRVLNQVADLLEQSL [S2R]
## Result 2.81

## Task Form field: reported protein stability index of WSSRSPQERSRVLNQVADLLERSL [Q22R]
## Result 2.72

## Task Please report the recorded protein stability index for WESRSPQERSRVLNQVADLLEQSL [S2E] .
## Result 2.9

## Task Tell me the measured protein stability index of WSSRSLQERSRVLNQVADLLEQSL [P6L] , please.
## Result 2.17

## Task Which protein stability index is reported for this variant? WSSRSPQERSRVLNQVDDLLEQSL [A17D]
## Result 3.87

## Task Reported protein stability index, variant WSSRSPQERSRVLNQVADNLEQSL [L19N] : ____
## Result 4.23

## Task Fill in the blank: the reported protein stability index of WSSRSMQERSRVLNQVADLLEQSL [P6M] is ____.
## Result 1.99

## Task Endpoint output: protein stability index of WSMRSPQERSRVLNQVADLLEQSL [S3M] . Value?
## Result 2.27

## Task protein stability index lookup needed for WSSRSPQERSRVLNQVYDLLEQSL [A17Y] , thanks.
## Result 2.15

## Task protein stability index for WSSRSPQERSRVLNQVADELEQSL [L19E] ?
## Result 4.4

## Task Which measured protein stability index value corresponds to WSSRSPQERSRVLNEVADLLEQSL [Q15E] ?
## Result 3.03

## Task Form field: reported protein stability index of WSSRSPQERSRVLNQVKDLLEQSL [A17K]
## Result 3.17

## Task Report protein stability index for WSSRSPQERSRVLNQVADLLEQSA [L24A] please.
## Result 2.88

## Task // protein stability index lookup, key: WSSRWPQERSRVLNQVADLLEQSL [S5W]
## Result 1.59

## Task State the recorded protein stability index for this entry: WSSRSPQERSRVLNFVADLLEQSL [Q15F]
## Result 1.54

## Task Return reported protein stability index; argument: WSSRSPQEISRVLNQVADLLEQSL [R9I]
## Result 2.44

## Task For WSSRSPQERSRVLNVVADLLEQSL [Q15V] , what is its reported protein stability index?
## Result 1.75

## Task If you can, please state the reported protein stability index value of WSSRSPMERSRVLNQVADLLEQSL [Q7M] .
## Result 2.23

## Task Please look up its protein stability index: WSSRSPQERSRVLNQVADTLEQSL [L19T]
## Result 3.74

## Task Fill blank: measured protein stability index of the variant WSSRSPQERSRVLNQVAVLLEQSL [D18V] is ____.
## Result 1.92

## Task Which protein stability index reading was recorded for the variant WSSRSPQERSRVLNQVADLLRQSL [E21R] ?
## Result 2.26

## Task # query: protein stability index of entry WSSRSPQERSRVLNQVEDLLEQSL [A17E]
## Result 3.88

## Task Form field: reported protein stability index of WSSRSPQERSRVLNQVADLLEQSI [L24I]
## Result 1.76

## Task Query (variant): WSSRSPQERSCVLNQVADLLEQSL [R11C] ; field requested: protein stability index
## Result 2.18

## Task If you can, please state the reported protein stability index value of WSSRSPKERSRVLNQVADLLEQSL [Q7K] .
## Result 2.61

## Task I'd like to know its protein stability index. The variant in question is WSSRRPQERSRVLNQVADLLEQSL [S5R]
## Result 2.87

## Task Requested field: protein stability index. Item: WSSRTPQERSRVLNQVADLLEQSL [S5T]
## Result 2.57

## Task # get_value(readout='protein stability index', item= WSSRSPQERSRVYNQVADLLEQSL [L13Y] )
## Result 2.6

## Task Which value of protein stability index has been reported for WSSRSPQERSRVLNQVADLHEQSL [L20H] in the records?
## Result 3.86

## Task What measured protein stability index goes with WSSRSPQERGRVLNQVADLLEQSL [S10G] ?
## Result 3.8

## Task Report protein stability index for WYSRSPQERSRVLNQVADLLEQSL [S2Y] please.
## Result 2.65

## Task Name the recorded protein stability index for WSSRSPQERSRTLNQVADLLEQSL [V12T] .
## Result 3.47

## Task Form field: reported protein stability index of WSSRSPQERSRVLNQVAYLLEQSL [D18Y]
## Result 1.81

## Task Which protein stability index reading was recorded for the variant WSSRSPQERSRVLNQVADLLEQVL [S23V] ?
## Result 2.09

## Task Any idea what its protein stability index is? The variant is WSSRSPQERSRVLNAVADLLEQSL [Q15A]
## Result 1.51

## Task Look up protein stability index: WSSRSPQERSRVLLQVADLLEQSL [N14L]
## Result 1.62

## Task Need protein stability index, item WSSRSPQERSRVLHQVADLLEQSL [N14H]
## Result 2.17

## Task protein stability index lookup needed for PSSRSPQERSRVLNQVADLLEQSL [W1P] , thanks.
## Result 3.02

## Task Endpoint output: protein stability index of WSSRSPQCRSRVLNQVADLLEQSL [E8C] . Value?
## Result 1.6

## Task Given WSSRSPQERSRVLNQVADLLEQSG [L24G] , state its recorded protein stability index.
## Result 3.16

## Task Form field: reported protein stability index of WSSRSPQEFSRVLNQVADLLEQSL [R9F]
## Result 2.56

## Task # lookup: protein stability index of WSHRSPQERSRVLNQVADLLEQSL [S3H]
## Result 2.52

## Task Quick one: protein stability index for WSSREPQERSRVLNQVADLLEQSL [S5E] ?
## Result 2.88

## Task Which protein stability index is listed for WTSRSPQERSRVLNQVADLLEQSL [S2T] ?
## Result 2.46

## Task Entry WSSRSPQERSRVLNQVTDLLEQSL [A17T] : reported protein stability index = ?
## Result 3.1

## Task Field request: protein stability index | item: WSSRSPQERCRVLNQVADLLEQSL [S10C]
## Result 2.36

## Task GET /values?readout=protein stability index&item= WSSRSPQERSRVLQQVADLLEQSL [N14Q]
## Result 2.41

## Task protein stability index lookup needed for WSSRSPQERSRVLNQVADLDEQSL [L20D] , thanks.
## Result 4.64

## Task Please report the recorded protein stability index for WSDRSPQERSRVLNQVADLLEQSL [S3D] .
## Result 2.77

## Task # get_value(readout='protein stability index', item= WSSRSPQFRSRVLNQVADLLEQSL [E8F] )
## Result 2.01

## Task Endpoint output: protein stability index of WSSRSPQERSRVLNQVADLLNQSL [E21N] . Value?
## Result 2.52

## Task Which protein stability index reading was recorded for the variant WSSRSPQERSRVPNQVADLLEQSL [L13P] ?
## Result 4.09

## Task Could you tell me which protein stability index is on file for WSSRSPQERSRVLNQVADLLEQSW [L24W] ?
## Result 2.19

## Task Entry under review: WSSRSPQERSRVLNQVQDLLEQSL [A17Q] . Reported protein stability index?
## Result 2.5

## Task # protein stability index lookup, item WSSRSPQERSRVLNRVADLLEQSL [Q15R]
## Result 2.85

## Task Query: protein stability index; subject: WSSRSPQERSRVLNQVADLLEQIL [S23I]
## Result 2.51

## Task I have this variant here, WSSRSPQERSRVLNQVADLLETSL [Q22T] , and I need its recorded protein stability index.
## Result 2.53

## Task Suppose we examine the variant WSSRSPQPRSRVLNQVADLLEQSL [E8P] ; what protein stability index value has been reported?
## Result 2.51

## Task Recorded protein stability index for WSSRDPQERSRVLNQVADLLEQSL [S5D] , please?
## Result 2.85

## Task Look up protein stability index: WSWRSPQERSRVLNQVADLLEQSL [S3W]
## Result 1.8

## Task Entry under review: WSSRSPQERSRVLNQVARLLEQSL [D18R] . Reported protein stability index?
## Result 2.34

## Task I have this variant here, WSSRIPQERSRVLNQVADLLEQSL [S5I] , and I need its recorded protein stability index.
## Result 2.4

## Task Can you look up the measured protein stability index of WSSRSPQERSRVLNQVADLKEQSL [L20K] for me?
## Result 4.64

## Task May I ask what protein stability index has been recorded for WSSRSPQERSRMLNQVADLLEQSL [V12M] ?
## Result 2.31

## Task Item WSSRSPQERSRVLNQVADLLEQGL [S23G] has what recorded protein stability index?
## Result 2.54

## Task For WSSRSPQERSRVLNQVADFLEQSL [L19F] , what is its reported protein stability index?
## Result 2.23

## Task Which protein stability index reading was recorded for the variant WSSRSPQERSRVLNQVADLLEQRL [S23R] ?
## Result 3.64

## Task protein stability index for WQSRSPQERSRVLNQVADLLEQSL [S2Q] ?
## Result 2.17

## Task Given the entry WSSRSPQERSRVLNQVADLLEQSK [L24K] , report its measured protein stability index.
## Result 3.94

## Task Looking for the measured protein stability index of DSSRSPQERSRVLNQVADLLEQSL [W1D] , can you help?
## Result 3.69

## Task Find the recorded protein stability index belonging to WSSRSPQERSRVLNQGADLLEQSL [V16G] and report it.
## Result 4.12

## Task Recorded protein stability index of WSSRSPQTRSRVLNQVADLLEQSL [E8T] , please.
## Result 2.46

## Task Consider the variant WSSRSPQERSRVLNQAADLLEQSL [V16A] and give its measured protein stability index.
## Result 3.86

## Task Request the reported protein stability index associated with WSSKSPQERSRVLNQVADLLEQSL [R4K]
## Result 2.49

## Task Give its protein stability index value. Item: WSSRSPQERSRVLNQVADLLEQQL [S23Q]
## Result 3.39

## Task What measured protein stability index goes with WSSRSPQERSRVCNQVADLLEQSL [L13C] ?
## Result 3.11

## Task I would be grateful if you could share the reported protein stability index for WSSRSPQERSLVLNQVADLLEQSL [R11L] .
## Result 2.15

## Task Give its protein stability index value. Item: WSSRSPWERSRVLNQVADLLEQSL [Q7W]
## Result 2.37

## Task protein stability index for WSSASPQERSRVLNQVADLLEQSL [R4A] ?
## Result 2.18

## Task // lookup protein stability index for WSSRSPQERSRVLNQVADLLESSL [Q22S]
## Result 3.1

## Task May I ask what protein stability index has been recorded for WSSRSYQERSRVLNQVADLLEQSL [P6Y] ?
## Result 1.98

## Task Query (variant): WSSRSPHERSRVLNQVADLLEQSL [Q7H] ; field requested: protein stability index
## Result 2.31

## Task Would you mind telling me what protein stability index value was observed for WSNRSPQERSRVLNQVADLLEQSL [S3N] ?
## Result 2.35

## Task Need protein stability index of WSSRSPQERSRVLNQVADLLEPSL [Q22P] , thanks.
## Result 3.31

All values here come from the supplement of paper PMC10567573.
